Hello, the source for this data is PubChem BioAssay (NCI), in case you need it.

Tested on: MDA-MB-435
Assay Protocol: NCI tumour cell line growth inhibition, 48 h
The entries below are paired with their reported TGI.
Parameter Measured: TGI

{"Structure Smiles": "Nc1nc2cc(COc3ccc(C(=O)O)cc3)ccc2nc1-c1ccccc1", "Observed Value": "> 10 µM"}
{"Structure Smiles": "COC(=O)/C=C1/OC(c2ccccc2)=C(Br)C1=O", "Observed Value": "> 100 µM"}
{"Structure Smiles": "CN(C)Cc1nsc(N(C)C)n1", "Observed Value": "> 100 µM"}
{"Structure Smiles": "CC1=C(C(=O)Nc2cc(F)c(F)cc2F)C(c2ccc(N(C)C)cc2)C(C(=O)Nc2cc(F)c(F)cc2F)=C(C)N1", "Observed Value": "> 100 µM"}
{"Structure Smiles": "CC(=O)O[C@H]1[C@@H](N2CCCCC2)C[C@H]2[C@@H]3CC=C4C[C@@H](N5CCCC5)CC[C@]4(C)[C@H]3CC[C@@]21C", "Observed Value": "> 100 µM"}

----------
System: OVCAR-8 ovarian
Assay Protocol: NCI tumour cell line growth inhibition, 48 h
Overview of reported TGI across a group of compounds:

{"Compound": "N#Cc1ccccc1NC(=O)C(O)C(O)C(O)C(O)C=O (stereo not drawn)", "TGI": "> 100 µM"}
{"Compound": "COC(=O)c1ccc(C)cc1C1CN=NC12Cc1c(C)cccc1C2=O (stereo not drawn)", "TGI": "> 92.4 µM"}
{"Compound": "CCC(=O)NC(NNS(=O)(=O)c1ccc(C)cc1)(C(F)(F)F)C(F)(F)F", "TGI": "> 100 µM"}
{"Compound": "COc1ccc(-n2c(C)nc3ccc(NC4OC(COC(C)=O)C(OC(C)=O)C(OC(C)=O)C4OC(C)=O)cc3c2=O)cc1 (stereo not drawn)", "TGI": "> 100 µM"}
{"Compound": "CSCCCNC(=O)c1csc(-c2csc(CCNC(=O)CNC(=O)OC(C)(C)C)n2)n1", "TGI": "> 100 µM"}
{"Compound": "NC(N)=N/N=C/c1c(Cl)nc2n1CCS2", "TGI": "> 100 µM"}
{"Compound": "COC(=O)c1c(C)c2c(c(C)c1O)OC(=O)c1c(C)cc(O)c(C=O)c1O2", "TGI": "> 100 µM"}
{"Compound": "Nc1nc(N)c2ncn(Cc3ccccc3CO)c2n1", "TGI": "> 100 µM"}
{"Compound": "CC(=O)O[C@H]1[C@@H](N2CCCCC2)C[C@H]2[C@@H]3CC=C4C[C@@H](N5CCCC5)CC[C@]4(C)[C@H]3CC[C@@]21C", "TGI": "> 100 µM"}
{"Compound": "COc1ccccc1NC(=S)Nc1ccccn1", "TGI": "> 100 µM"}
{"Compound": "O=C(CC(=O)n1nc(-c2ccccc2)c(N=Nc2ccc([N+](=O)[O-])cc2)c1-c1ccccc1)Nc1ccc(Cl)cc1", "TGI": "> 100 µM"}
{"Compound": "CC(=O)CC(=O)Nc1ccc(OS(N)(=O)=O)cc1", "TGI": "> 100 µM"}
{"Compound": "CC1CCC2C(C(=O)O[C@H]3C4C=CO[C@@H](OC5OC(CO)C(O)C(O)C5O)C4[C@@]4(CO)O[C@@H]34)=CO[C@@H](OC3OC(CO)C(O)C(O)C3O)C12 (stereo partly drawn)", "TGI": "> 10 µM"}
{"Compound": "C=CC(=O)N1CCN(c2nc(OC[C@@H]3CCCN3C)nc3c(F)c(-c4nc(N)cc(C)c4C(F)(F)F)c(Cl)cc23)[C@@H](C)C1", "TGI": "3.09 µM"}
{"Compound": "CCN1C(c2ccccc2)=CC(c2ccccc2)(C(Cl)(Cl)Cl)C=C1c1ccccc1", "TGI": "> 100 µM"}
{"Compound": "O=S(=O)([O-])c1ccc(C=Nc2ccccc2)c([O-])c1.O=S(=O)([O-])c1ccc(C=Nc2ccccc2)c([O-])c1.[Co+2]", "TGI": "> 100 µM"}
{"Compound": "COP(=O)(OC)[C@@](O)(c1ccccc1)[C@@H](O)[C@@H](O)c1ccccc1", "TGI": "> 100 µM"}
{"Compound": "O=C1C=CC(=O)N1c1ccc2ccccc2c1", "TGI": "42.3 µM"}
{"Compound": "COc1ccccc1OC/C(N=Cc1cccnc1)=N/NC(=O)c1ccncc1", "TGI": "> 100 µM"}
{"Compound": "CCOC(=O)c1ccc(N[C@@H]2c3cc4c(cc3C(c3cc(OC)c(O)c(OC)c3)[C@H]3C(=O)OCC32)OCO4)cc1 (stereo partly drawn)", "TGI": "6.49 µM"}
{"Compound": "CCCCCCCCCCCCNCCCc1ccccc1", "TGI": "3.39 µM"}
{"Compound": "Cc1nc2sc(C(=O)Nc3cccc4c3OCCO4)c(N)c2cc1C(C)O (stereo not drawn)", "TGI": "> 100 µM"}
{"Compound": "N#C/C(=C\\c1ccccn1)c1nc2ccccc2o1", "TGI": "> 100 µM"}
{"Compound": "O=C1/C(=C/c2ccc([N+](=O)[O-])cc2)Oc2cc(O)ccc21", "TGI": "> 100 µM"}
{"Compound": "CC[P+](C)(C)CC", "TGI": "> 100 µM"}
{"Compound": "Cc1nc2ccccc2c(/C=C/c2ccc(C(F)(F)F)cc2)c1C(=O)/C=C/c1ccccc1", "TGI": "4.91 µM"}
{"Compound": "COc1ccc(C)cc1-c1ccc(-c2cc(C)ccc2OC)o1", "TGI": "> 100 µM"}
{"Compound": "COc1ccc(C(=O)c2[nH]c(Nc3cc(C)ccn3)c(C(=S)Nc3ccccc3)c2N)cc1", "TGI": "52.4 µM"}
